- System Name: GST-tagged recombinant full-length human Pim-2 (Homo sapiens)
- Construct: GST-tagged recombinant full-length human Pim-2; GST
- Sequence (Q9P1W9 whole entry): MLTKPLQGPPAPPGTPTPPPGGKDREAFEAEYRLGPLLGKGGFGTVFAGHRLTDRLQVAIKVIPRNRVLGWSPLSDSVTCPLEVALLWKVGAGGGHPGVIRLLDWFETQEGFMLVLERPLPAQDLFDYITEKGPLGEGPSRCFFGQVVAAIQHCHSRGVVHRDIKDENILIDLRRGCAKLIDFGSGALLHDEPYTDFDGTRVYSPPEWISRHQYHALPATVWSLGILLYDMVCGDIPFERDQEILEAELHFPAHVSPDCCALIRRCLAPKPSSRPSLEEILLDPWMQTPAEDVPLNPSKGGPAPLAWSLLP
- Experimental Protocol: PIM-2 Assay (as Example A)
- Measurement Setup: averaged IC50; 4 μM ATP, 1.0 μM PIM2tide, 1.5 nM Pim-2
pIC50: −log10 of the molar value. Counter-ions that a name gives are not always drawn.
Measurement Name: pIC50

compound="COCCOc1ccc2ccc(-c3nnc4ccc([C@@H](N5CC[C@H](N)C5)C(F)(F)F)cn34)nc2c1C1CC1 [Example 152, dihydrochloride]" system_name="GST-tagged recombinant full-length human Pim-2 (Homo sapiens)" measurement_name=pIC50 modifier== test_value=7.38
compound="COCCCOc1ccc2ccc(-c3nnc4ccc([C@@H](N5CC[C@H](N)C5)C(F)(F)F)cn34)nc2c1 [Example 275, dihydrochloride]" system_name="GST-tagged recombinant full-length human Pim-2 (Homo sapiens)" measurement_name=pIC50 modifier== test_value=6.42
compound="C[C@@]1(N)CCN([C@@H](c2ccc3nnc(-c4ccc5cccc(C6CC6)c5n4)n3c2)C(F)(F)F)C1 [Example 94, dihydrochloride]" system_name="GST-tagged recombinant full-length human Pim-2 (Homo sapiens)" measurement_name=pIC50 modifier== test_value=7.51
compound="Cn1cc(-c2ccc3ccc(-c4nnc5ccc(C(N6CC[C@H](N)C6)C(F)(F)F)cn45)nc3c2)cn1 (stereo partly drawn) [Example 4, trihydrochloride]" system_name="GST-tagged recombinant full-length human Pim-2 (Homo sapiens)" measurement_name=pIC50 modifier== test_value=6.35
compound="N[C@H]1CCN([C@H](c2ccc3nnc(-c4ccc5cc(F)c(OC(F)F)cc5n4)n3c2)C(F)(F)F)C1 [Example 215, dihydrochloride]" system_name="GST-tagged recombinant full-length human Pim-2 (Homo sapiens)" measurement_name=pIC50 modifier=< test_value=6.00
compound="CCOCCOc1ccc2ccc(-c3nnc4ccc([C@@H](N5CC[C@H](N)C5)C(F)(F)F)cn34)nc2c1 [Example 274, dihydrochloride]" system_name="GST-tagged recombinant full-length human Pim-2 (Homo sapiens)" measurement_name=pIC50 modifier== test_value=6.02
